# Procedure Text: self-splicing fitness, log relative to wild type (ln ratio); higher = more splicing; Tetrahymena group I intron in knt gene, E. coli kanamycin selection, DiMSum; sequences stand for … in CUCUCU…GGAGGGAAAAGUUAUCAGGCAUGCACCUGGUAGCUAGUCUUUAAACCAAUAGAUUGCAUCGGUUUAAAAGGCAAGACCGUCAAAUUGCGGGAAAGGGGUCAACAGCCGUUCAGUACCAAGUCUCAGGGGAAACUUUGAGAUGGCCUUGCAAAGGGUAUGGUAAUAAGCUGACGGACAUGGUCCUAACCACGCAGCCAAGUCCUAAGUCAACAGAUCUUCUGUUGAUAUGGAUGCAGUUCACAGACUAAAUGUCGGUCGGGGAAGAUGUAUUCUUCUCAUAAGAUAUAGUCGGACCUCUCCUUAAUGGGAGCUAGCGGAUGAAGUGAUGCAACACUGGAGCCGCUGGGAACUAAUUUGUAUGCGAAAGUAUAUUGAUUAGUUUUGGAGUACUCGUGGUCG;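 further: selection with 25 µg/mL kanamycin versus none on LB agar overnight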
# Recorded Conditions: 37 °C
Each record here notes measured self-splicing fitness (ln).
Quantity Name: self-splicing fitness (ln)

           sequence_data  reading
 0  CAGGAGCAAUAUUACGCGUC    -3.04
 1  AGCUAGCAAUAUUACGCACC   -0.409
 2  CCACAGCAAUAUUACGUUAA    -2.48
 3  AAUUAGCAAUAUUACGGCCU     0.38
 4  CCACAGCAAUAUUACGUCCG    0.344
 5  GCAGAGCAAUAUUACGUUAC    -1.38
 6  GUUUAGCAAUAUUACGGGGG    -1.82
 7  AAAUAGCAAUAUUACGUCAG    -1.41
 8  AUUCAGCAAUAUUACGCCAA    -1.19
 9  GGGGAGCAAUAUUACGGUCA   -0.676
10  GAUUAGCAAUAUUACGAAGU   -0.783
11  GUUUAGCAAUAUUACGUUUC    -2.07
12  AUGCAGCAAUAUUACGAACG  -0.0769
13  UGCGAGCAAUAUUACGCUUG    -2.05
14  CUGUAGCAAUAUUACGUAAU    -3.29
15  GGUGAGCAAUAUUACGCAGG    -2.07
16  GCGAAGCAAUAUUACGGUGA    -1.07
17  GCCCAGCAAUAUUACGAGUA   -0.671
18  GAUUAGCAAUAUUACGUAAA   -0.793
19  CCGGAGCAAUAUUACGCUGU     -2.4
20  UCAGAGCAAUAUUACGUACC    -1.59
21  UAUUAGCAAUAUUACGUUAG    -1.62
22  GCAUAGCAAUAUUACGAGUG    -1.76
23  CGAGAGCAAUAUUACGCGUU    -2.46
24  CUCUAGCAAUAUUACGGGUG   -0.947
25  UCAAAGCAAUAUUACGCUGU    -2.82
26  UUGAAGCAAUAUUACGCUAC    -1.75
27  GGUUAGCAAUAUUACGCGUA   -0.174
28  AGAAAGCAAUAUUACGACGA   0.0397
29  GCUCAGCAAUAUUACGGGGG    -1.92
30  GAUUAGCAAUAUUACGUGCG   0.0923
31  UAGUAGCAAUAUUACGGGAU    -1.97
32  AAAAAGCAAUAUUACGUCCU    0.294
33  GCUCAGCAAUAUUACGAGAU   -0.431
34  GAGGAGCAAUAUUACGGCUA    -1.37
35  AGGCAGCAAUAUUACGGGCG   -0.172
36  GUUCAGCAAUAUUACGAUCG   -0.548
37  CCAGAGCAAUAUUACGCGAG    -2.36
38  UCCCAGCAAUAUUACGCUCC   -0.443
39  AGUCAGCAAUAUUACGGGAU    -1.51
40  UCCAAGCAAUAUUACGGCUU    -1.53
41  GCAGAGCAAUAUUACGUAAA    -3.33
42  UGGAAGCAAUAUUACGAUGG  -0.0527
43  AAGCAGCAAUAUUACGCGGG    -1.27
44  UCACAGCAAUAUUACGCGCU    -1.78
45  CGGUAGCAAUAUUACGGGUA    -3.01
46  AGUAAGCAAUAUUACGAUCC    0.236
47  CUGAAGCAAUAUUACGCACG    -1.34
48  CACAAGCAAUAUUACGGCCC    -1.82
49  AAGAAGCAAUAUUACGCAUC   -0.986
50  GUACAGCAAUAUUACGAGUC    -1.53
51  AUCAAGCAAUAUUACGCCAG    -1.32
52  AGUAAGCAAUAUUACGGUGA    -1.21
53  GCACAGCAAUAUUACGAGUA   -0.881
54  AUCGAGCAAUAUUACGCGAC    -2.55
55  ACCGAGCAAUAUUACGAUAA    -2.01
56  AAAGAGCAAUAUUACGCGAC   -0.998
57  AAUAAGCAAUAUUACGAGUC    -1.48
58  UCCCAGCAAUAUUACGAAAG    -3.06
59  UGUCAGCAAUAUUACGAAUA    -1.03
60  UCGCAGCAAUAUUACGAUAA   -0.243
61  GUCGAGCAAUAUUACGUGCA   -0.701
62  GUAUAGCAAUAUUACGGGAG    -1.77
63  UUUAAGCAAUAUUACGGAGC    -1.43
64  GGUCAGCAAUAUUACGGAUU   -0.499
65  AGGAAGCAAUAUUACGGUCC    -1.05
66  GCCAAGCAAUAUUACGCUAG    -2.25
